Tested on: female VICs
Details: female VICs, stiff hydrogels; from dose response curves
readoutLabel: CC1 (µM)

>  <compound>
O=C(COCC(=O)Nc1ccc(Cl)cc1C(=O)O)Nc1cccc(-c2ccoc2)c1

>  <quantitativeResult>
19.7

$$$$
>  <compound>
Cc1cncc2cccc(S(=O)(=O)N3CCCNC[C@@H]3C)c12

>  <quantitativeResult>
0.26

$$$$
>  <compound>
NS(=O)(=O)Oc1ccc2c3c(c(=O)oc2c1)CCCCC3

>  <quantitativeResult>
50.2

$$$$
>  <compound>
Fc1ccc(Cl)cc1-c1nc(Nc2ccncc2)c2nccnc2n1

>  <quantitativeResult>
34.8

$$$$

###

Tested on: male VICs
Assay: percent αSMA GMI reduction, male VICs on stiff hydrogels
Type: cell-based, pig
Settings: male VICs, from dose response curves
readoutLabel: log10 EC1 (log10 of the value in µM)

>  <compound>
Cc1cncc2cccc(S(=O)(=O)N3CCCNC[C@@H]3C)c12

>  <measuredOn>
male VICs

>  <log10 EC1>
0.29

$$$$
>  <compound>
C[C@@H](N)[C@H]1CC[C@H](C(=O)Nc2ccncc2)CC1

>  <measuredOn>
male VICs

>  <log10 EC1>
-0.25

$$$$
>  <compound>
Fc1ccc(Cl)cc1-c1nc(Nc2ccncc2)c2nccnc2n1

>  <measuredOn>
male VICs

>  <log10 EC1>
-1.24

$$$$
>  <compound>
O=c1cc(N2CCOCC2)oc2c(-c3ccccc3)cccc12

>  <measuredOn>
male VICs

>  <log10 EC1>
1.11

$$$$
>  <compound>
CCCCc1nc(Cl)c(CO)n1Cc1ccc(-c2ccccc2-c2nn[nH]n2)cc1

>  <measuredOn>
male VICs

>  <log10 EC1>
1.27

$$$$
>  <compound>
O=C(COCC(=O)Nc1ccc(Cl)cc1C(=O)O)Nc1cccc(-c2ccoc2)c1

>  <measuredOn>
male VICs

>  <log10 EC1>
0.70

$$$$
>  <compound>
C[S+]([O-])c1ccc(-c2nc(-c3ccncc3)c(-c3ccc(F)cc3)[nH]2)cc1 (centres unmarked)

>  <measuredOn>
male VICs

>  <log10 EC1>
1.39

$$$$
>  <compound>
NS(=O)(=O)Oc1ccc2c3c(c(=O)oc2c1)CCCCC3

>  <measuredOn>
male VICs

>  <log10 EC1>
1.97

$$$$

###

# Lookup of reported CC1 keyed by entry
System: male VICs
Details: male VICs, stiff hydrogels; from dose response curves

>  <compound>
Fc1ccc(Cl)cc1-c1nc(Nc2ccncc2)c2nccnc2n1

>  <measurementUnits>
µM

>  <CC1>
26.6

$$$$
>  <compound>
O=C(COCC(=O)Nc1ccc(Cl)cc1C(=O)O)Nc1cccc(-c2ccoc2)c1

>  <measurementUnits>
µM

>  <CC1>
18.9

$$$$
>  <compound>
Cc1cncc2cccc(S(=O)(=O)N3CCCNC[C@@H]3C)c12

>  <measurementUnits>
µM

>  <CC1>
0.162

$$$$
>  <compound>
NS(=O)(=O)Oc1ccc2c3c(c(=O)oc2c1)CCCCC3

>  <measurementUnits>
µM

>  <CC1>
48.5

$$$$

###

# Lookup of reported Percent αSMA reduction, Average keyed by entry
Test system: female VICs
Assay: percent αSMA GMI reduction, female VICs on soft hydrogels
Type: cell-based, pig
Settings: single drug at L2 dose, n = 3 gels

>  <compound>
O=C(COCC(=O)Nc1ccc(Cl)cc1C(=O)O)Nc1cccc(-c2ccoc2)c1 [TM5441]

>  <measuredOn>
female VICs

>  <Percent αSMA reduction, Average [%]>
17.16

$$$$
>  <compound>
Fc1ccc(Cl)cc1-c1nc(Nc2ccncc2)c2nccnc2n1 [SD-208]

>  <measuredOn>
female VICs

>  <Percent αSMA reduction, Average [%]>
9.37

$$$$
>  <compound>
CCCCc1nc(Cl)c(CO)n1Cc1ccc(-c2ccccc2-c2nn[nH]n2)cc1 [Losartan]

>  <measuredOn>
female VICs

>  <Percent αSMA reduction, Average [%]>
2.73

$$$$
>  <compound>
Cc1cncc2cccc(S(=O)(=O)N3CCCNC[C@@H]3C)c12 [Combination H1152]

>  <measuredOn>
female VICs

>  <Percent αSMA reduction, Average [%]>
3.37

$$$$
>  <compound>
O=c1cc(N2CCOCC2)oc2c(-c3ccccc3)cccc12 [LY294002]

>  <measuredOn>
female VICs

>  <Percent αSMA reduction, Average [%]>
11.35

$$$$
>  <compound>
C[C@@H](N)[C@H]1CC[C@H](C(=O)Nc2ccncc2)CC1 [Combination Y-27632]

>  <measuredOn>
female VICs

>  <Percent αSMA reduction, Average [%]>
8.24

$$$$

###

# Lookup of reported CC2 keyed by entry
Tested on: female VICs
Conditions: female VICs, stiff hydrogels; from dose response curves

>  <compound>
O=C(COCC(=O)Nc1ccc(Cl)cc1C(=O)O)Nc1cccc(-c2ccoc2)c1

>  <CC2>
31.1 µM

$$$$
>  <compound>
Cc1cncc2cccc(S(=O)(=O)N3CCCNC[C@@H]3C)c12

>  <CC2>
0.806 µM

$$$$
>  <compound>
Fc1ccc(Cl)cc1-c1nc(Nc2ccncc2)c2nccnc2n1

>  <CC2>
40.1 µM

$$$$
>  <compound>
NS(=O)(=O)Oc1ccc2c3c(c(=O)oc2c1)CCCCC3

>  <CC2>
57.9 µM

$$$$

###

# Lookup of reported CC25 (percent cytotoxicity) keyed by entry
Tested on: female VICs
Details: female VICs on stiff gels, n = 3 gels
readoutLabel: CC25 (percent cytotoxicity) (µM)

>  <compound>
O=C(COCC(=O)Nc1ccc(Cl)cc1C(=O)O)Nc1cccc(-c2ccoc2)c1

>  <readoutLabel>
CC25 (percent cytotoxicity)

>  <measurementUnits>
µM

>  <quantitativeResult>
191

$$$$
>  <compound>
NS(=O)(=O)Oc1ccc2c3c(c(=O)oc2c1)CCCCC3

>  <readoutLabel>
CC25 (percent cytotoxicity)

>  <measurementUnits>
µM

>  <quantitativeResult>
109

$$$$
>  <compound>
Cc1cncc2cccc(S(=O)(=O)N3CCCNC[C@@H]3C)c12

>  <readoutLabel>
CC25 (percent cytotoxicity)

>  <measurementUnits>
µM

>  <quantitativeResult>
72.6

$$$$
>  <compound>
Fc1ccc(Cl)cc1-c1nc(Nc2ccncc2)c2nccnc2n1

>  <readoutLabel>
CC25 (percent cytotoxicity)

>  <measurementUnits>
µM

>  <quantitativeResult>
70.1

$$$$

###

Test system: male VICs
Settings: male VICs, stiff hydrogels; from dose response curves
Method: After culture on hydrogels or TCPS, the spent drug-containing media were removed, and VICs were immersed in a 4% paraformaldehyde solution in PBS for 20 min and then permeabilized for 1 hour with 0.1% Triton X-100 (Thermo Fisher Scientific) in PBS. […] Gel samples were imaged in situ using a Nikon Eclipse Ti2-E and analyzed using an automated MATLAB code to quantify the αSMA gradient mean intensities and caspase-3 intensities normalized to cell mask for each cell. […]
readoutLabel: CC2

>  <molecule>
Cc1cncc2cccc(S(=O)(=O)N3CCCNC[C@@H]3C)c12 [Combination H1152]

>  <readoutLabel>
CC2

>  <result>
0.28 µM

$$$$
>  <molecule>
O=C(COCC(=O)Nc1ccc(Cl)cc1C(=O)O)Nc1cccc(-c2ccoc2)c1 [TM5441]

>  <readoutLabel>
CC2

>  <result>
21.9 µM

$$$$
>  <molecule>
Fc1ccc(Cl)cc1-c1nc(Nc2ccncc2)c2nccnc2n1 [SD-208]

>  <readoutLabel>
CC2

>  <result>
31.1 µM

$$$$
>  <molecule>
NS(=O)(=O)Oc1ccc2c3c(c(=O)oc2c1)CCCCC3 [Irosustat]

>  <readoutLabel>
CC2

>  <result>
58.7 µM

$$$$
